molecular target: Jak2 (UniProt O60674); assay: phosphorylation enrichment, bacterial display (enrichment ratio); higher = better substrate or ligand; peptides without Tyr show the background;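 also: 11-residue human phosphosite peptides and single-mutation variants displayed on the E. coli surface, counted by deep sequencing, each peptide's frequency after selection divided by its frequency in the unselected input library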;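 also: frequency after pTyr selection over input frequency; kinase dosed for 20-30% of maximal phosphorylation in three min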
Sequence (O60674 whole entry, looked up): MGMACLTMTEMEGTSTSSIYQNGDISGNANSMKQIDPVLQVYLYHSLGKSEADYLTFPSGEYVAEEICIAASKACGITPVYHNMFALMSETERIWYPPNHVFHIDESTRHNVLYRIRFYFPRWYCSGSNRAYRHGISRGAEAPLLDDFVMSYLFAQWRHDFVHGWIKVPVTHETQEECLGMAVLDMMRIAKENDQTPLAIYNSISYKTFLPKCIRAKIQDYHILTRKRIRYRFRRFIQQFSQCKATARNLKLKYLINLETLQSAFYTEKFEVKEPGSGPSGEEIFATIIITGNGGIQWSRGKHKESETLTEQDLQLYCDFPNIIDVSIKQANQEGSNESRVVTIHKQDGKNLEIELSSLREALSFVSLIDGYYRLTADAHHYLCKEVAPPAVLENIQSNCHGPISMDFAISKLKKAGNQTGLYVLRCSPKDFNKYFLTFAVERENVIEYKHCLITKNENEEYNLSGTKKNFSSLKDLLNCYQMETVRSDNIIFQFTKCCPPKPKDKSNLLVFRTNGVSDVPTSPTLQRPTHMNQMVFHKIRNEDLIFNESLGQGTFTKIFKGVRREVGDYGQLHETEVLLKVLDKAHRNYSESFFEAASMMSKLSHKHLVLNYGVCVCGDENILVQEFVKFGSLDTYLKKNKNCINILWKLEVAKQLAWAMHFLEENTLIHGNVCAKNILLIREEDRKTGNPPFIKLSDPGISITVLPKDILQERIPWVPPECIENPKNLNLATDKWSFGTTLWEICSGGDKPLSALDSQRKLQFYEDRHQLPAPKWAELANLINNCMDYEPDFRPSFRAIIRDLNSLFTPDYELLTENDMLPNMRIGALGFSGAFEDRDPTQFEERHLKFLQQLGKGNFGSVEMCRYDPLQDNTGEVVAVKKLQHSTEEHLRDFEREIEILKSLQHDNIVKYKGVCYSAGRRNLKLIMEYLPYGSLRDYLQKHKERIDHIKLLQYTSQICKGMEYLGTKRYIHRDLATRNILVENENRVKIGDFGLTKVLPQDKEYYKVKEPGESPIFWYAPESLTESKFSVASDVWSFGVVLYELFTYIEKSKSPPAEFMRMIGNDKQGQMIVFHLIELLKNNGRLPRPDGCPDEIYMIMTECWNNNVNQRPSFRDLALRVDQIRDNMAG
measurementLabel: phosphorylation enrichment
One number for each entry.

>  <orderedResidues>
SGPRCYTIAAL [TTR_Y125_R124C]

>  <measurementLabel>
phosphorylation enrichment

>  <valueMeasured>
0.535

$$$$

Kindly give each listed record's phosphorylation enrichment.
1. FLNSIYKCRDE [ROS1_Y2227_S2229C]
2. QEGPEYWDGNT [HLA-B_Y83_R86G]
3. KLVRLYAVVTR [LYN_Y306]
4. IDQDKYAVRFI [FLNA_Y2388]
5. DTKDDYNALSV [IL17RB_Y457]
6. FFCRWYRNQKS [EREG_Y144_R147Q_YF]
7. GSSSSCGQHGS [HRNR_Y517_Y517C]
8. GLDSSYLLRDS [SH2D1A_Y29_G27S]

1. 1.24
2. 1.98
3. 1.15
4. 0.635
5. 0.916
6. 0.488
7. 0.448
8. 0.464
